Where do the numbers come from? From ChEMBL document CHEMBL1128224.

Target: Delta-type opioid receptor (Mus musculus) (UniProt P32300)
Sequence (P32300 whole entry): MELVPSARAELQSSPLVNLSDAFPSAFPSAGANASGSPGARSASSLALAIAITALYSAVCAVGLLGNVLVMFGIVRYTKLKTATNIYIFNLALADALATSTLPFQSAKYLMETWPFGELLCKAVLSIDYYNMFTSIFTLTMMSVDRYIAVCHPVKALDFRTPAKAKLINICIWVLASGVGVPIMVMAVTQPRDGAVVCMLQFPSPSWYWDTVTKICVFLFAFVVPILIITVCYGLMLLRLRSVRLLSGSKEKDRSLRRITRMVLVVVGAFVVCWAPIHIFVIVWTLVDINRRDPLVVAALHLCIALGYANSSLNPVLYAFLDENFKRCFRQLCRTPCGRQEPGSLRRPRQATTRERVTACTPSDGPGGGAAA
Experiment: The antagonist potencies mediated through […] were expressed as Ke values calculated on DADLE(delta) in the mouse vas deferens(MVD) preparation
Format: functional
Measured Attribute: log10(Ke) (log10 of the value in nM)
Hello, just confirming the data are log10 of Ke with units of nM.

| Molecule | log10(Ke) |
| --- | --- |
| O=C(O)CNC(=O)c1cccc2c3c([nH]c12)[C@@H]1Oc2c(O)ccc4c2C12CCN(CC1CC1)C(C4)[C@]2(O)C3 (some centres not stated) | 0.51 |
| O=C(O)c1cccc2c3c([nH]c12)[C@@H]1Oc2c(O)ccc4c2C12CCN(CC1CC1)C(C4)[C@]2(O)C3 (some centres not stated) | -0.40 |
| N=C(N)NCCC[C@@H](NC(=O)c1cccc2c3c([nH]c12)[C@@H]1Oc2c(O)ccc4c2C12CCN(CC1CC1)C(C4)[C@]2(O)C3)C(=O)O (some centres not stated) | 0.52 |
| NCCCC[C@@H](NC(=O)c1cccc2c3c([nH]c12)[C@@H]1Oc2c(O)ccc4c2C12CCN(CC1CC1)C(C4)[C@]2(O)C3)C(=O)O (some centres not stated) | 0.72 |
| NCCC[C@@H](NC(=O)c1cccc2c3c([nH]c12)[C@@H]1Oc2c(O)ccc4c2C12CCN(CC1CC1)C(C4)[C@]2(O)C3)C(=O)O (some centres not stated) | 0.26 |

Q: Tell me log10(Ke) reported for O=C(O)C[C@@H](NC(=O)c1cccc2c3c([nH]c12)[C@@H]1Oc2c(O)ccc4c2C12CCN(CC1CC1)C(C4)[C@]2(O)C3)C(=O)O (some centres not stated)
Ans: 0.04

Q: Tell me measured log10(Ke) for Oc1ccc2c3c1O[C@H]1c4[nH]c5ccccc5c4C[C@@]4(O)[C@@H](C2)N(CC2CC2)CC[C@]314 please.
Ans: -0.70

====

Biological target: Opioid receptors; mu & delta (Homo sapiens) (UniProt P41143+P35372)
Sequence (P35372 whole entry, looked up): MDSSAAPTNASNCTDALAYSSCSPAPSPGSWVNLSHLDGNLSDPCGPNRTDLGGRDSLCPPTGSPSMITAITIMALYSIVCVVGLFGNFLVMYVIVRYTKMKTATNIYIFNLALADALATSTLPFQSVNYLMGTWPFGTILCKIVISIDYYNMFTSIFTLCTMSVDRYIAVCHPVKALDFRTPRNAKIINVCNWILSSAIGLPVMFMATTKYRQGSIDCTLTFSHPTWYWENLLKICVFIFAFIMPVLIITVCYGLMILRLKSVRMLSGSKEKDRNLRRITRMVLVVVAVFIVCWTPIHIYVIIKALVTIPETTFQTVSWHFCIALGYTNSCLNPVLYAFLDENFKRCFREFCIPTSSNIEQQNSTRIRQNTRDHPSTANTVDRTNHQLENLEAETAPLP
Sequence (P41143 whole entry, looked up): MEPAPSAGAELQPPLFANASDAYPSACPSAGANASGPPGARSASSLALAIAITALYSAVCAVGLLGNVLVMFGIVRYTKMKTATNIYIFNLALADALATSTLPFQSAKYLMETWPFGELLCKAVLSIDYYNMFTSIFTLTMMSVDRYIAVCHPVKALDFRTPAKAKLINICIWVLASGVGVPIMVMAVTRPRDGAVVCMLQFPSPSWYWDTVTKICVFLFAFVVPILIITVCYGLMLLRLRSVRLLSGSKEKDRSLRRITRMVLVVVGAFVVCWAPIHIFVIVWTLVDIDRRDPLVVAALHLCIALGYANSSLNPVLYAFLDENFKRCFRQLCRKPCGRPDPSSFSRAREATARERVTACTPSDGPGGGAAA
Experiment: Selectivity as the ratio of IC50 value against delta receptor to that of mu receptor.
Assay type: protein assay
Measured Attribute: Selectivity
Simply state the number, no unit and no words.

Before answering, review these 2 worked examples.
| Molecule | Selectivity |
| --- | --- |
| O=C(O)C[C@@H](NC(=O)c1cccc2c3c([nH]c12)[C@@H]1Oc2c(O)ccc4c2C12CCN(CC1CC1)C(C4)[C@]2(O)C3)C(=O)O (stereo partly drawn) | 67 |
| O=C(O)c1cccc2c3c([nH]c12)[C@@H]1Oc2c(O)ccc4c2C12CCN(CC1CC1)C(C4)[C@]2(O)C3 (stereo partly drawn) | 122 |

Please find the next molecule below.
Q: Supply reported Selectivity belonging to this molecule: O=C(O)CNC(=O)c1cccc2c3c([nH]c12)[C@@H]1Oc2c(O)ccc4c2C12CCN(CC1CC1)C(C4)[C@]2(O)C3 (stereo partly drawn)
Ans: 21

====

Target: Opioid receptors; mu & delta (Homo sapiens) (UniProt P41143+P35372)
Experiment: Selectivity as the ratio of IC50 value against delta receptor to that of mu receptor.
Format: protein assay
Measured Attribute: Selectivity
Keep the answer to the number alone.

Please review the following examples before continuing.
| Compound | Test Value |
| --- | --- |
| NCCCC[C@@H](NC(=O)c1cccc2c3c([nH]c12)[C@@H]1Oc2c(O)ccc4c2C12CCN(CC1CC1)C(C4)[C@]2(O)C3)C(=O)O (stereo partly drawn) | 20 |
| NCCC[C@@H](NC(=O)c1cccc2c3c([nH]c12)[C@@H]1Oc2c(O)ccc4c2C12CCN(CC1CC1)C(C4)[C@]2(O)C3)C(=O)O (stereo partly drawn) | 20 |

Q: // fetch Selectivity given entry N=C(N)NCCC[C@@H](NC(=O)c1cccc2c3c([nH]c12)[C@@H]1Oc2c(O)ccc4c2C12CCN(CC1CC1)C(C4)[C@]2(O)C3)C(=O)O (stereo partly drawn)
Ans: 24
